Target: BA/F3-BCL-2 cells (Homo sapiens, UniProt P10415)
Sequence (P10415 whole entry, change not shown): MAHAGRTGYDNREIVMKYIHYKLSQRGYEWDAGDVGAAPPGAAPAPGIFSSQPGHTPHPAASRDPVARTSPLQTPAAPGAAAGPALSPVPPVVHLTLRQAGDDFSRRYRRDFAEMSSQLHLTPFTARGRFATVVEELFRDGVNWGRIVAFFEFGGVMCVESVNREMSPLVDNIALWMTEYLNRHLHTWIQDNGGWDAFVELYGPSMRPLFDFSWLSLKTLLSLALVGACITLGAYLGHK
Assay: BA/F3 cell proliferation assay, BCL-2 wild type
Assay type: cell-based, Murine
Details: 24 hrs treatment, 3% FBS, CellTiter-Glo, geometric mean of 3 experiments; read-out: Cellular proliferation assay (IC50, nM) Bcl-2 WT; BaF3 cell
Our labelling divides records by IC50 into ranges: low end: < 0.4 nM; middle: ≥ 0.4 nM and < 1 nM; high end: ≥ 1 nM

{"COMPOUND": "CC(C)c1ccccc1[C@@H]1CCCN1C1CC2(CCN(c3ccc(C(=O)NS(=O)(=O)c4cc5c(c([N+](=O)[O-])c4)N[C@H](C[C@H]4CC[C@H](O)CC4)CO5)c(N4CCCOc5nc6[nH]ccc6cc54)c3)CC2)C1 [Example B9]", "CATEGORY": "middle"}
{"COMPOUND": "CC(C)c1ccccc1[C@@H]1CCCN1C1CC2(CCN(c3ccc(C(=O)NS(=O)(=O)c4cc5c(c([N+](=O)[O-])c4)N[C@H](C[C@H]4CC[C@H](O)CC4)CO5)c(N4C[C@@H](C)Oc5nc6[nH]ccc6cc54)c3)CC2)C1 [Example B7]", "CATEGORY": "low end"}
{"COMPOUND": "CC(C)c1ccccc1[C@@H]1CCCN1C1CC2(C1)CN(c1ccc(C(=O)NS(=O)(=O)c3ccc(NCC4(F)CCOCC4)c([N+](=O)[O-])c3)c(N3CCCOc4nc5[nH]ccc5cc43)c1)C2 [Example B14]", "CATEGORY": "high end"}
{"COMPOUND": "CC(C)c1ccccc1[C@@H]1CCCN1C1CC2(CCN(c3ccc(C(=O)NS(=O)(=O)c4cc5c(c([N+](=O)[O-])c4)N[C@H](CC4CCC(O)CC4)CO5)c(N4C[C@H](C)Oc5nc6[nH]ccc6cc54)c3)CC2)C1 (stereo partly drawn) [Example B8]", "CATEGORY": "middle"}
{"COMPOUND": "CC(C)c1ccccc1[C@@H]1CCCN1C1CC2(CCN(c3ccc(C(=O)NS(=O)(=O)c4ccc(NC[C@H]5CC[C@](C)(O)CC5)c([N+](=O)[O-])c4)c(N4C[C@H](C)Oc5nc6[nH]ccc6cc54)c3)CC2)C1 [Example B6]", "CATEGORY": "high end"}
{"COMPOUND": "CC(C)c1ccccc1[C@@H]1CCCN1C1CC2(CCN(c3ccc(C(=O)NS(=O)(=O)c4cc5c(c([N+](=O)[O-])c4)N[C@H](C[C@H]4CC[C@H](O)CC4)CO5)c(Oc4cnc5[nH]ccc5c4)c3)CC2)C1 [Example A4]", "CATEGORY": "low end"}
{"COMPOUND": "CC(C)c1ccccc1[C@@H]1CCCN1C1CC2(C1)CN(c1ccc(C(=O)NS(=O)(=O)c3ccc(NC[C@H]4CC[C@](C)(O)CC4)c([N+](=O)[O-])c3)c(N3CCCOc4nc5[nH]ccc5cc43)c1)C2 [Example B13]", "CATEGORY": "high end"}
{"COMPOUND": "[2H]C1([2H])CCC([2H])(c2ccccc2C(C)C)N1C1CC2(CCN(c3ccc(C(=O)NS(=O)(=O)c4cc5c(c([N+](=O)[O-])c4)N[C@H](C[C@H]4CC[C@H](O)CC4)CO5)c(Oc4cnc5[nH]ccc5c4)c3)CC2)C1 (stereo partly drawn) [Example A7]", "CATEGORY": "low end"}
{"COMPOUND": "CC(C)c1ccccc1[C@@H]1CCCN1C1CC2(CCN(c3ccc(C(=O)NS(=O)(=O)c4ccc(NC[C@H]5CC[C@](C)(O)CC5)c([N+](=O)[O-])c4)c(N4C[C@@H](C)Oc5nc6[nH]ccc6cc54)c3)CC2)C1 [Example B5]", "CATEGORY": "low end"}
{"COMPOUND": "CC(C)c1ccccc1[C@@H]1CCCN1C1CC2(CCN(c3ccc(C(=O)NS(=O)(=O)c4ccc(NCC5(F)CCOCC5)c([N+](=O)[O-])c4)c(N4CCCOc5nc6[nH]ccc6cc54)c3)CC2)C1 [Example B2]", "CATEGORY": "middle"}
